- test_details: Single dose pharmacokinetics (PK) study in male Wister-Han rats
- Assay type: in vivo, rat
- condition_summary: rat, plasma, IV 2 mg/kg
Checkbox rule: half-life lower than 9 h = t; half-life not lower than 9 h = f.

A selection of reference data follows.
[
  {
    "molecule": "CO[C@@H]1CN(c2ccc3c(c2)[C@@H](C)CN(c2cc(C)nc4c2cnn4C)C3)C[C@H]1N [Example 23]",
    "class_name": "f"
  },
  {
    "molecule": "CO[C@@H]1CN(c2ccc3c(n2)[C@@H](C)CN(c2cc(C)nc4c2cnn4C)C3)C[C@H]1N [Example 63]",
    "class_name": "f"
  },
  {
    "molecule": "C[C@H]1CN(c2ccnc3c2cnn3C)Cc2ccc(N3CCNCC3)cc21 [Example 1]",
    "class_name": "t"
  }
]

API: the following record is the query input.
QUERY: Bench note: check whether CO[C@@H]1CN(c2ccc3c(c2)[C@@H](C)CN(c2ccnc4c2cnn4C)C3)C[C@H]1N [Example 20] shows half-life below 9 h
RESULT: t

* * *

Entries annotated with measured pIC50
- system: hERG channel (Homo sapiens)
- Sequence (Q12809 whole entry): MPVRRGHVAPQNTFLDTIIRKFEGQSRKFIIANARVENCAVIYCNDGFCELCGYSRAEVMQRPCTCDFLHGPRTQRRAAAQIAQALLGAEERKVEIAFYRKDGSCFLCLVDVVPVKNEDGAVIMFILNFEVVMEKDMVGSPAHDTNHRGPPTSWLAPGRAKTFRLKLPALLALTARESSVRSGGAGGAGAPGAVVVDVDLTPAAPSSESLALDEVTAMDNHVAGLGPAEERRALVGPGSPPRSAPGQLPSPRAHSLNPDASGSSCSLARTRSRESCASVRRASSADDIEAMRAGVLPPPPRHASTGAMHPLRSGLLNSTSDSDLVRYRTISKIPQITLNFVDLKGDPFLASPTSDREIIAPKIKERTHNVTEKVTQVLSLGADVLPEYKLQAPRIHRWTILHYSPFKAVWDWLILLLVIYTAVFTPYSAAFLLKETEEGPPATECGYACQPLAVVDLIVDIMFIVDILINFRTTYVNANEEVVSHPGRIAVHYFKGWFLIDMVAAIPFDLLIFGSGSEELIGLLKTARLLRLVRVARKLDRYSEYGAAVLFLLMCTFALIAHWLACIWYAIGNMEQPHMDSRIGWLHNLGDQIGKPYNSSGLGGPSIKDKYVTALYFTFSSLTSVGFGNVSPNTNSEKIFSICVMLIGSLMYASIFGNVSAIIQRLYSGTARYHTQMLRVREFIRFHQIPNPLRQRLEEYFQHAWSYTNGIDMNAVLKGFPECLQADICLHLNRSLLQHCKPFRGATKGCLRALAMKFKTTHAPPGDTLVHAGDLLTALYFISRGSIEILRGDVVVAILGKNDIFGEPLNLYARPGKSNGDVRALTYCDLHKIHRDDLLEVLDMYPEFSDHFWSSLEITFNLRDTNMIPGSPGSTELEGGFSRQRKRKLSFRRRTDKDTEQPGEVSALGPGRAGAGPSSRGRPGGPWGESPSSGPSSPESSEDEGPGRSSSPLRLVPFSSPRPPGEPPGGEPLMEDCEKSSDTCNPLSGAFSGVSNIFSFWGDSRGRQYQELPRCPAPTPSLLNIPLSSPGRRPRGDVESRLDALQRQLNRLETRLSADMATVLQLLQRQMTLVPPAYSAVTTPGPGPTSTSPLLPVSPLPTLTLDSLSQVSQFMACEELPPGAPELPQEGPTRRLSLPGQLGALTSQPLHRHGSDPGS
- test_details: hERG channel inhibition assay (patch-clamp, CHOhERG cells)
- condition_summary: CHOhERG cells, whole-cell patch-clamp
pIC50: −log10 of the molar value.

Example entries begin here.
[
  {
    "query_smiles": "C[C@H]1CN(c2ccnc3c2cnn3C)Cc2ccc(OC[C@H]3CNCCN3)cc21",
    "system": "hERG channel (Homo sapiens)",
    "readout_label": "pIC50",
    "experimental_result": "< 4.70"
  },
  {
    "query_smiles": "C[C@H]1CN(c2ccnc3c2cnn3C)Cc2ccc(OC3CN(C4CCNCC4)C3)cc21",
    "system": "hERG channel (Homo sapiens)",
    "readout_label": "pIC50",
    "experimental_result": "< 4.70"
  },
  {
    "query_smiles": "C[C@H]1CN(c2ccnc3c2cnn3C)Cc2ccc(N3CCNCC3)cc21",
    "system": "hERG channel (Homo sapiens)",
    "readout_label": "pIC50",
    "experimental_result": "< 4.70"
  },
  {
    "query_smiles": "C[C@H]1CN(c2ccnc3c2cnn3C)Cc2ccc(OC[C@@H]3CNCCN3)cc21",
    "system": "hERG channel (Homo sapiens)",
    "readout_label": "pIC50",
    "experimental_result": "< 4.70"
  }
]

QUERY: Tell me the measured pIC50 of C[C@H]1CN(c2ccnc3c2cnn3C)Cc2ccc(OCCN3CCNCC3)cc21 , please.
RESULT: < 4.70

QUERY: Tell me the measured pIC50 of Cc1cc(N2Cc3ccc(OC[C@H]4CNCCN4)cc3[C@@H](C)C2)c2cnn(C)c2n1 , please.
RESULT: < 4.70

QUERY: Tell me the measured pIC50 of Cc1cc(N2Cc3cnc(OCCN4CCNCC4)cc3[C@@H](C)C2)c2cnn(C)c2n1 , please.
RESULT: < 4.70

QUERY: Tell me the measured pIC50 of CO[C@@H]1CN(c2ccc3c(c2)[C@@H](C)CN(c2ccnc4c2cnn4C)C3)C[C@H]1N , please.
RESULT: < 4.70

QUERY: Tell me the measured pIC50 of C[C@H]1CN(c2ccnc3c2cnn3C)Cc2ccc(N3C[C@@H]4CNCCN4C3=O)cc21 , please.
RESULT: < 4.70

QUERY: Tell me the measured pIC50 of Cc1cc(N2Cc3cnc(O[C@@H]4C[C@H]5CNCCN5C4)cc3[C@@H](C)C2)c2cnn(C)c2n1 , please.
RESULT: < 4.70

QUERY: Tell me the measured pIC50 of Cc1cc(N2Cc3cnc(N4CC[C@@H](N)[C@H](F)C4)cc3[C@@H](C)C2)c2cnn(C)c2n1 , please.
RESULT: < 4.70

QUERY: Tell me the measured pIC50 of C[C@H]1CN(c2ccnc3c2cnn3C)Cc2ccc(N3CC4(CCNCC4)CC3=O)cc21 , please.
RESULT: < 4.70

* * *

- system: human TLR7 (Homo sapiens, UniProt Q9NYK1)
- Sequence (Q9NYK1 27-1049): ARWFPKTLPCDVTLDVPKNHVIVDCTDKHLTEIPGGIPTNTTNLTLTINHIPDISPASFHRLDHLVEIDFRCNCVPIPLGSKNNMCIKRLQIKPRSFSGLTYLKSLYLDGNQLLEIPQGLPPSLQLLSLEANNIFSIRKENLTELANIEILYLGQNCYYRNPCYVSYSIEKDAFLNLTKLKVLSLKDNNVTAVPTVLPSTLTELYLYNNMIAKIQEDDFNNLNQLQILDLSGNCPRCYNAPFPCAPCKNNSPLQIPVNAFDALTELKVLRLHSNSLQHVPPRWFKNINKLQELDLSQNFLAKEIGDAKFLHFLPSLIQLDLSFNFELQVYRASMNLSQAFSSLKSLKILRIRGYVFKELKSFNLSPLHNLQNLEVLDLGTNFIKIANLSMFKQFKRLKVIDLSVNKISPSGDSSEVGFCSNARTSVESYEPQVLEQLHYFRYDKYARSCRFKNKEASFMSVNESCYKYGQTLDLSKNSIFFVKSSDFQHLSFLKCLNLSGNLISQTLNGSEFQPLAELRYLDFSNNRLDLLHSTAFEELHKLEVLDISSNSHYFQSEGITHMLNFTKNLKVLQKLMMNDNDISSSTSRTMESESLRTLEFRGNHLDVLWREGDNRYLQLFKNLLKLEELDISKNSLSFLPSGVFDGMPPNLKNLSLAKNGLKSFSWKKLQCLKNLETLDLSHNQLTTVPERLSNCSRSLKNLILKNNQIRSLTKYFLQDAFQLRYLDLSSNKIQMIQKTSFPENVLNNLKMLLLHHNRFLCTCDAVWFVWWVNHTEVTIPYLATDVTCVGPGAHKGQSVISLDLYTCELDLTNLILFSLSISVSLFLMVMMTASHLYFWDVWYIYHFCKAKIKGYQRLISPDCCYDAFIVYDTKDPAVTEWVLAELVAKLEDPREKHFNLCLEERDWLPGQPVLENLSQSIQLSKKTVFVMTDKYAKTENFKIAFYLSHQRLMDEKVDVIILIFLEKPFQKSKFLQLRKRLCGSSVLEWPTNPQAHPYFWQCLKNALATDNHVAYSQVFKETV
- test_details: HEK293-Blue-hTLR-7 cells assay (SEAP reporter, R848 stimulation)
- condition_summary: HEK293-Blue-hTLR7 cells, R848, 20 hrs; read-out: HEK/hTLR7 IC50
readout_label: log10(IC50) (log10 of the value in nM)
Scale type: logarithmic (base 10). Underlying IC50 unit: nM.

[
  {
    "compound": "C[C@H]1CN(c2ccnc3c2cnn3C)Cc2ccc(OC[C@@H]3CNCCN3)cc21",
    "readout_label": "log10(IC50)",
    "experimental_result": 0.90
  },
  {
    "compound": "Cc1cc(N2Cc3ccc(N4CC5(CNCCO5)C4)nc3[C@@H](C)C2)c2cnn(C)c2n1",
    "readout_label": "log10(IC50)",
    "experimental_result": 1.23
  },
  {
    "compound": "C[C@H]1CN(c2ccnc3c2cnn3C)Cc2ccc(N3C[C@]4(CCNC4)CC3=O)cc21 (single isomer, unassigned)",
    "readout_label": "log10(IC50)",
    "experimental_result": 1.72
  },
  {
    "compound": "C[C@H]1CN(c2ccnc3c2cnn3C)Cc2ccc(OC3CN(C4CCNCC4)C3)cc21",
    "readout_label": "log10(IC50)",
    "experimental_result": 0.85
  },
  {
    "compound": "Cc1cc(N2Cc3ccc(OC[C@H]4CNCCN4)cc3[C@@H](C)C2)c2cnn(C)c2n1",
    "readout_label": "log10(IC50)",
    "experimental_result": 1.57
  },
  {
    "compound": "CO[C@H]1CN(c2ccc3c(n2)[C@@H](C)CN(c2cc(C)nc4c2cnn4C)C3)CC[C@@H]1N",
    "readout_label": "log10(IC50)",
    "experimental_result": 0.78
  },
  {
    "compound": "Cc1cc(N2Cc3ccc(N4CCNCC4)nc3[C@H](C)C2)c2cnn(C)c2n1",
    "readout_label": "log10(IC50)",
    "experimental_result": 1.32
  },
  {
    "compound": "C[C@H]1CN(c2ccnc3c2cnn3C)Cc2ccc(N3C[C@@]4(CCNC4)CC3=O)cc21 (single isomer, unassigned)",
    "readout_label": "log10(IC50)",
    "experimental_result": 1.26
  },
  {
    "compound": "C[C@H]1CN(c2ccnc3c2cnn3C)Cc2ccc(N3CC4(CNC4)CC3=O)cc21",
    "readout_label": "log10(IC50)",
    "experimental_result": 1.41
  },
  {
    "compound": "C[C@H]1CN(c2ccnc3c2cnn3C)Cc2ccc(N3CCC(N4CC[C@@H](N)[C@H](O)C4)CC3)cc21",
    "readout_label": "log10(IC50)",
    "experimental_result": 0.95
  }
]

Below: the item to evaluate.
QUERY: Tell me the measured log10(IC50) of C[C@H]1CN(c2ccnc3c2cnn3C)Cc2ccc(N3CC4(CCNC4)CC3=O)cc21 (stereo partly drawn) , please.
RESULT: 0.95

* * *

- system: human TLR8 (Homo sapiens, UniProt Q9NR97)
- Construct: host or cells: HEK293 (HEK-Blue hTLR8)
- Sequence (Q9NR97 27-1041): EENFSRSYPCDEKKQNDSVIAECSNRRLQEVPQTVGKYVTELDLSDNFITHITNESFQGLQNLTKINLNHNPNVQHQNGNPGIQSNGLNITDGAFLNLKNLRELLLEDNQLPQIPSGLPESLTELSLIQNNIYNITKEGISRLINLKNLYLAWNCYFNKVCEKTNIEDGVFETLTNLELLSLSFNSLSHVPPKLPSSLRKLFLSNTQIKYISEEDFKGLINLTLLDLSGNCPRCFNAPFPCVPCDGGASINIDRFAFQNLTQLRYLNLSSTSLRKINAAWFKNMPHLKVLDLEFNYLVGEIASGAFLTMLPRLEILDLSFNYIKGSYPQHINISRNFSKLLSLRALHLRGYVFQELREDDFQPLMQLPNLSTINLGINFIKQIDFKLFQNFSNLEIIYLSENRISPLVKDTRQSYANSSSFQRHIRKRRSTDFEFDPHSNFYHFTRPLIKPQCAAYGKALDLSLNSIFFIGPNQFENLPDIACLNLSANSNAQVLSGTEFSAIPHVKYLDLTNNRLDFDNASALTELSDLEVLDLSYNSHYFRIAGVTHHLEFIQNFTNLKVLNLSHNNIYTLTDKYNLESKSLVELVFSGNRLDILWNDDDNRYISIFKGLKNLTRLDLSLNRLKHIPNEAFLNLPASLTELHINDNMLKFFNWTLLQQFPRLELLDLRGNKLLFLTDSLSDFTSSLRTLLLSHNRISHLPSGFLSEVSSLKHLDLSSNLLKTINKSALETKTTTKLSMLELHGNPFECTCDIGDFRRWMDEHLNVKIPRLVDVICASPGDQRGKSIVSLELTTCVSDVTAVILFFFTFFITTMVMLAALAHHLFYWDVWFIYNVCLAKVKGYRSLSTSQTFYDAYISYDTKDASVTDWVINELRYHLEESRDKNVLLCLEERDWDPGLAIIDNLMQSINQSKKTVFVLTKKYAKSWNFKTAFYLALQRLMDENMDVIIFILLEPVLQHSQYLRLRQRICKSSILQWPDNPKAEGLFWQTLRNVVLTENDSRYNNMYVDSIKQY
- test_details: HEK293-Blue-hTLR-8 cells assay (SEAP reporter, R848 stimulation)
- Type: cell-based
- condition_summary: HEK293-Blue-hTLR8 cells, R848, 20 hrs; read-out: HEK/hTLR8 IC50
Entries annotated with measured IC50
Answer with a number only, understood to be in nM.

[
  {
    "compound": "C[C@H]1CN(c2ccnc3c2cnn3C)Cc2ccc(N3C[C@]4(CCNC4)CC3=O)cc21 (single isomer, unassigned)",
    "system": "human TLR8 (Homo sapiens, UniProt Q9NR97)",
    "unit_abbreviation": "nM",
    "IC50": 5
  },
  {
    "compound": "C[C@H]1CN(c2ccnc3c2cnn3C)Cc2ccc(N3CC4(CNCCO4)C3)cc21",
    "system": "human TLR8 (Homo sapiens, UniProt Q9NR97)",
    "unit_abbreviation": "nM",
    "IC50": 14
  },
  {
    "compound": "Cc1cc(N2Cc3cnc(OCCN4CCNCC4)cc3[C@@H](C)C2)c2cnn(C)c2n1",
    "system": "human TLR8 (Homo sapiens, UniProt Q9NR97)",
    "unit_abbreviation": "nM",
    "IC50": 16
  },
  {
    "compound": "CC1CN(c2ccc3c(c2)[C@@H](C)CN(c2ccnc4c2cnn4C)C3)CCN1 (stereo partly shown)",
    "system": "human TLR8 (Homo sapiens, UniProt Q9NR97)",
    "unit_abbreviation": "nM",
    "IC50": 3
  },
  {
    "compound": "C[C@H]1CN(c2ccnc3c2cnn3C)Cc2ccc(N3C[C@@H]4CCNC[C@@H]4C3=O)cc21 (single isomer, unassigned)",
    "system": "human TLR8 (Homo sapiens, UniProt Q9NR97)",
    "unit_abbreviation": "nM",
    "IC50": 24
  },
  {
    "compound": "Cc1cc(N2Cc3ccc(N4CC5(CNCCO5)C4)cc3[C@@H](C)C2)c2cnn(C)c2n1",
    "system": "human TLR8 (Homo sapiens, UniProt Q9NR97)",
    "unit_abbreviation": "nM",
    "IC50": 6
  }
]

QUERY: Tell me the measured IC50 of CO[C@@H]1CN(c2ccc3c(c2)[C@@H](C)CN(c2cc(C)nc4c2cnn4C)C3)C[C@H]1N , please.
RESULT: 7

QUERY: Tell me the measured IC50 of C[C@H]1CN(c2ccnc3c2cnn3C)Cc2ccc(N3C[C@H]4CNCCN4C3=O)cc21 , please.
RESULT: 2

QUERY: Tell me the measured IC50 of C[C@H]1CN(c2ccnc3c2cnn3C)Cc2ccc(N3CCN(Cc4cn(C)cn4)CC3)cc21 , please.
RESULT: 5

QUERY: Tell me the measured IC50 of C[C@H]1CN(c2ccnc3c2cnn3C)Cc2ccc(N3CCNCC3)cc21 , please.
RESULT: 2

QUERY: Tell me the measured IC50 of Cn1ncc2c(N3Cc4ccc(N5CCC6(CCNCC6)CC5)cc4C(C)(C)C3)ccnc21 , please.
RESULT: 18

QUERY: Tell me the measured IC50 of CO[C@@H]1CN(c2ccc3c(c2)[C@@H](C)CN(c2ccnc4c2cnn4C)C3)C[C@H]1N , please.
RESULT: 17

QUERY: Tell me the measured IC50 of C[C@H]1CN(c2ccnc3c2cnn3C)Cc2ccc(N3CC4(CCNCC4)OC3=O)cc21 , please.
RESULT: 10

QUERY: Tell me the measured IC50 of Cc1cc(N2Cc3ccc(N4C[C@@H](N)[C@H](O)C4)cc3[C@@H](C)C2)c2cnn(C)c2n1 , please.
RESULT: 3

QUERY: Tell me the measured IC50 of Cc1cc(N2Cc3ccc(N4CCNCC4)cc3[C@@H](C)C2)c2cnn(C)c2n1 , please.
RESULT: 1
